molecular target: Phosphatidylinositol 4,5-bisphosphate 3-kinase catalytic subunit delta isoform (Homo sapiens); assay: Inhibition of wild type PI3K-delta (unknown origin) assessed as decrease in ATP consumption at 10 uM using phosphotidylinositol bisphosphate and ATP measured after 60 mins by Kinase-Glo reagent based luminescence assay
OBSERVED PROPERTY: inhibition (%)

See these solved cases before continuing.
INSERT INTO measurements (smiles_structure, assay_value) VALUES
  ('O=c1nc(N2CCOCC2)oc2c(-c3ccsc3)c(OCc3ccccc3)ccc12', 39.5),
  ('Nc1cccc(-c2c(OCc3cccnc3)ccc3c(=O)nc(N4CCOCC4)oc23)c1', 41.9),
  ('O=c1nc(N2CCOCC2)oc2c(-c3cccc4c3oc3ccccc34)c(OCc3ccccc3)ccc12', -2.9);

I: Nc1cccc(-c2c(OCc3ccccc3)ccc3c(=O)nc(N4CCOCC4)oc23)c1
II: O=c1nc(N2CCOCC2)oc2c(-c3cccc4ccccc34)c(OCc3ccccc3)ccc12
III: O=c1nc(N2CCOCC2)oc2c(-c3cccs3)c(OCc3cccnc3)ccc12
IV: O=c1nc(N2CCOCC2)oc2c(-c3cc4ccccc4s3)c(OCc3ccccc3)ccc12
Input line: Order the entries by their reported inhibition, beginning at the minimum. # format: label list in the order the request specifies
Output line: IV, II, III, I

I: O=c1nc(N2CCOCC2)oc2c(-c3ccccc3)c(OCc3ccncc3)ccc12
II: O=c1nc(N2CCOCC2)oc2c(-c3cccs3)c(OCc3ccccn3)ccc12
III: O=c1nc(N2CCOCC2)oc2c(-c3cccs3)c(OCc3ccccc3)ccc12
IV: O=c1nc(N2CCOCC2)oc2c(-c3cccnc3)c(OCc3ccccc3)ccc12
Input line: Order the entries by their reported inhibition, beginning at the minimum. # format: label list in the order the request specifies
Output line: III, II, IV, I

A: O=c1nc(N2CCOCC2)oc2c(-c3ccccc3)c(OCc3ccccn3)ccc12
B: CN1CCN(CCOc2ccc3c(=O)nc(N4CCOCC4)oc3c2-c2ccc(Cl)cc2)CC1
Input line: I need your help: which of the pair A , B has higher inhibition? Response format: the label of the selected entry.
Output line: A

Data provenance is ChEMBL document CHEMBL4043200.
